Geometric mean of resulting FACS plot listing for selected binders.
# Tgt: T1, TEM-1 in a native state on aortic smooth muscle cells (AoSMC) (UniProt Q9HCU0 18-757, limits assumed)
# T1 construct: whole, on cells; also called tumor endothelial marker 1; endosialin
# T1 sequence (looked up): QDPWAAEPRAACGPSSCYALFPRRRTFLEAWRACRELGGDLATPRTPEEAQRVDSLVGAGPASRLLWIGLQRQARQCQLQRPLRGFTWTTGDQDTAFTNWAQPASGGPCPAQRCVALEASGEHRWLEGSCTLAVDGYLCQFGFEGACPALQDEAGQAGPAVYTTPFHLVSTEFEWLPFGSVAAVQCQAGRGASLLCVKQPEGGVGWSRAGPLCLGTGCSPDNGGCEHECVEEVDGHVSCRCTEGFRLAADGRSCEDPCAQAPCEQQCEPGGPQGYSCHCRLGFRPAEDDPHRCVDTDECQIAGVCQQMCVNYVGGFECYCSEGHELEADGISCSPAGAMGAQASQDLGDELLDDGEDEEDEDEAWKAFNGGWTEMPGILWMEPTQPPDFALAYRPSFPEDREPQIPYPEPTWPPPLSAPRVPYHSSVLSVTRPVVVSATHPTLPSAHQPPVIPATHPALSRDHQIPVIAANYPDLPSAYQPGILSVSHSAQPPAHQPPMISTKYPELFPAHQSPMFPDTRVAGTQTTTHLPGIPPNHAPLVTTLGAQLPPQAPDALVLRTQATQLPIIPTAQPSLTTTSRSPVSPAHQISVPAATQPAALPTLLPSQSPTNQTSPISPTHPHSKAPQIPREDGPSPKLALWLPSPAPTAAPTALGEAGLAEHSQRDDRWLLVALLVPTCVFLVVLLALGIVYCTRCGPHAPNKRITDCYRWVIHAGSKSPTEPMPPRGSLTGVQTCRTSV
# Assay overview: flow cytometry on AoSMC, 10 µg/mL antibody, FITC goat anti-rat secondary; cells only 2.5, secondary only 3.5
No unit in the answer, only the number.

Antibody 9A5 (antibody, V domains shown, Rat monoclonal antibody from hybridoma, IgG2a/kappa; also called 9A5.G12.B10.F8.F6; ATCC PTA-12542) VH: EVQLVESGGGLVQPGRSMKLSCAASGFTFRNYYMAWVRQAPTRGLEWVASTGSGGDFTYYRDSVKGRFTISRDTAENTLYLQMDSLRSEDTATYYCARAYGYFDYWGQGVRVTVSS VL: DIVLTQSPTTLSVTPGETVSLSCRASHSVGTNLHWYQQKTNESPRLLIKDASQSMSGIPSRFSASGSGTDFTLNIKNVEFDDVSSYFCQQTQSWPLTFGSGTKLEIK = 89.9

[Q] # query: Geometric mean of resulting FACS plot of entry Antibody 7H12 (antibody, V domains shown, Rat monoclonal antibody from hybridoma, IgG1/kappa; also called 7H12.H5.E7; ATCC PTA-12545) VH: EVQLVESGGGLVQPGRSMILSCAASGFTFSNFDMAWVRQAPKMGLEWVATITYDGSRTNYRDSVKGRFTISRDSAKNTLYLQMDSLTSEDTATYYCARHGSSYYWFFDFWGPGTMVTVSS VL: ETVMTQSPTSMPTSIGERVTLNCKASQSVGINVDWYQQTPGQSPKLLIYTASNRHTGVPDRFAGSGSGRDFTLTISNVEAEDLVVYYCLQYGSLPFTFGAGTKLELK
[A] 59.9

Recorded values, source patent US20150337051A1.
